Target: CSF1R (FMS) (Homo sapiens, UniProt P07333)
Sequence (P07333 20-972): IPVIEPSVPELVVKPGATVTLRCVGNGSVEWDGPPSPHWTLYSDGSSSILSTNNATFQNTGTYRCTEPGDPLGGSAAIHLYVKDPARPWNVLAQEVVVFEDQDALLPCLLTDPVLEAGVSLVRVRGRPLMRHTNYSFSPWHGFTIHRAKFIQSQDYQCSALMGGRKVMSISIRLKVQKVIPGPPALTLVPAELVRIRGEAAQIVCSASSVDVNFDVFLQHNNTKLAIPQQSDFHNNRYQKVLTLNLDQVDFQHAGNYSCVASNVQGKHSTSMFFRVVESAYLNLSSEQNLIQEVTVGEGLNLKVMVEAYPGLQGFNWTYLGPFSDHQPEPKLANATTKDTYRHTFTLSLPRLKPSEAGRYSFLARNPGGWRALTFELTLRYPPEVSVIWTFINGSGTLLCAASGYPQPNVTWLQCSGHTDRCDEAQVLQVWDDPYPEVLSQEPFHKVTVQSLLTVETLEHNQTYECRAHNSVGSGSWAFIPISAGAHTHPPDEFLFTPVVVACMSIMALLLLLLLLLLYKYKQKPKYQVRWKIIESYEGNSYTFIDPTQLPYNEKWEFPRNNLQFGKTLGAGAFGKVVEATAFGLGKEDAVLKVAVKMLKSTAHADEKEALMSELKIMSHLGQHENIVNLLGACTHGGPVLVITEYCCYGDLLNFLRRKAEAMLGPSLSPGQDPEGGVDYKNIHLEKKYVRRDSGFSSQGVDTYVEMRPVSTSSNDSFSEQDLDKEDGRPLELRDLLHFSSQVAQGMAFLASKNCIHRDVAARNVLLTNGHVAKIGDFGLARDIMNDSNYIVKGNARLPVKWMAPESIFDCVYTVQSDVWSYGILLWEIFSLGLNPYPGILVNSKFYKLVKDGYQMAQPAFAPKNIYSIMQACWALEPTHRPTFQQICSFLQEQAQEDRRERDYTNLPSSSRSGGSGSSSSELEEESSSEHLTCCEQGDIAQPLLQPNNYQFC
Assay: Z'-LYTE SelectScreen biochemical kinase assay CSF1R (FMS)
Conditions: read-out: % Inhibition mean CSF1R (FMS)

# Compound, Assay System, inhibition at 10 µM, %
data = [
    ("Cc1cc(F)ccc1-c1cccn2nc(NC3CCc4c(cnn4C)C3)nc12 (centres unmarked)", "CSF1R (FMS) (Homo sapiens, UniProt P07333)", 42),
    ("CCn1ncc2c1CC[C@@H](Nc1nc3c(-c4ccc(F)c(Cl)c4)cccn3n1)C2", "CSF1R (FMS) (Homo sapiens, UniProt P07333)", 18),
    ("CCn1nnc2c1CCC(Nc1nc3c(-c4ccc(F)cc4C)cccn3n1)C2 (centres unmarked)", "CSF1R (FMS) (Homo sapiens, UniProt P07333)", 9),
    ("CCn1ncc2c1CCC(Nc1nc3c(-c4ccc(OC)nc4)cccn3n1)C2 (centres unmarked)", "CSF1R (FMS) (Homo sapiens, UniProt P07333)", 62),
    ("CCn1ncc2c1CCC(Nc1nc3c(-c4ccccc4C)cccn3n1)C2 (centres unmarked)", "CSF1R (FMS) (Homo sapiens, UniProt P07333)", 58),
    ("CCn1ncc2c1C(C)CC(Nc1nc3c(-c4cc(F)c(F)c(F)c4)cccn3n1)C2 (centres unmarked)", "CSF1R (FMS) (Homo sapiens, UniProt P07333)", 34),
    ("CCn1ncc2c1CCC(Nc1nc3c(-c4ccc(F)cc4C)cccn3n1)C2 (centres unmarked)", "CSF1R (FMS) (Homo sapiens, UniProt P07333)", 34),
    ("Cc1cc(F)ccc1-c1cccn2nc(NC3CCc4cnn(C)c4C3)nc12 (centres unmarked)", "CSF1R (FMS) (Homo sapiens, UniProt P07333)", 25),
]

* * *

Target: FGFR1 (Homo sapiens, UniProt P11362)
Sequence (P11362 22-822): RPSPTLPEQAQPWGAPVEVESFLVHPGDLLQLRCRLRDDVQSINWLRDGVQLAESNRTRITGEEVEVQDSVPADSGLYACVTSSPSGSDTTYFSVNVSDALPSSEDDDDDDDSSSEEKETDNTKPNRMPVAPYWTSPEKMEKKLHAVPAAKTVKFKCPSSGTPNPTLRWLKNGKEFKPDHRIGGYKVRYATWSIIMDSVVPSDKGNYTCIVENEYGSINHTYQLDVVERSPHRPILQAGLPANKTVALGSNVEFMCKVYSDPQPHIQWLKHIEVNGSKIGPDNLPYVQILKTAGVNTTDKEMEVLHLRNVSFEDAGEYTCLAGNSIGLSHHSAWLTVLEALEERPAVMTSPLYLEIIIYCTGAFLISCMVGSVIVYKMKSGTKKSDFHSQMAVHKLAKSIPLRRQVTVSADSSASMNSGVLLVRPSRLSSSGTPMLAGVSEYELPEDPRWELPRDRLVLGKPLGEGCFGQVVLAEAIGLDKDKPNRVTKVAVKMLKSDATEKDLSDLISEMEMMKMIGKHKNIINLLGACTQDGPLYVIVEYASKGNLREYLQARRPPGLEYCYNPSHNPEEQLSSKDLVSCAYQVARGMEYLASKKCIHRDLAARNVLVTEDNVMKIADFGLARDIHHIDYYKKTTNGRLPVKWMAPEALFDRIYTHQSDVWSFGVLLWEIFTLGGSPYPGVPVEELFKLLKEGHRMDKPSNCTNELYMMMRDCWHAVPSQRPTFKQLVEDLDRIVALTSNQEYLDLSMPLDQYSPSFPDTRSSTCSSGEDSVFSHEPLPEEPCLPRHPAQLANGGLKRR
Experiment: Z'-LYTE SelectScreen biochemical kinase assay FGFR1
Details: read-out: % Inhibition mean FGFR1
Source text: Thermo Fisher Scientific SelectScreen™ Biochemical Kinase Profiling Service Z′-LYTE™ Screening Protocol and Assay Conditions Assay Theory The […] biochemical assay employs a fluorescence-based, coupled-enzyme format and is based on the differential sensitivity of phosphorylated and non-phosphorylated peptides to proteolytic cleavage. […] Both cleaved and uncleaved FRET-peptides contribute to the fluorescence signals and therefore to the Emission Ratio. […]
# if value of inhibition at 10 µM reaches 20%, tag true; if it stays below, tag false

# Compound, Class Assignment
rows = [
    ("CCn1ncc2c1CCC(Nc1nc3c(-c4cccnc4)cccn3n1)C2 (centres unmarked)", "false"),
    ("CCn1ncc2c1CC[C@@H](Nc1nc3c(-c4ccc(F)cc4C)cccn3n1)C2", "false"),
    ("CCCn1ncc2c1CCC(Nc1nc3c(-c4ccc(F)cc4C)cccn3n1)C2 (centres unmarked)", "false"),
    ("CCc1nn(C)c2c1CCC(Nc1nc3c(-c4ccc(F)cc4C)cccn3n1)C2 (centres unmarked)", "false"),
    ("CCn1ncc2c1CCC(Nc1nc3c(-c4ccc(F)cc4C)cccn3n1)C2 (centres unmarked)", "false"),
    ("CCn1ncc2c1C(C)CC(Nc1nc3c(-c4cc(F)c(F)c(F)c4)cccn3n1)C2 (centres unmarked)", "false"),
    ("CCn1ncc2c1CC[C@H](Nc1nc3c(-c4ccc(F)c(Cl)c4)cccn3n1)C2", "false"),
    ("CCn1ncc2c1CCC(Nc1nc3c(-c4ccc(OC)nc4)cccn3n1)C2 (centres unmarked)", "false"),
    ("CCCCCn1ncc2c1CCC(Nc1nc3c(-c4ccc(F)cc4C)cccn3n1)C2 (centres unmarked)", "true"),
    ("CCn1ncc2c1CCC(Nc1nc3c(-c4cncc(OC)c4)cccn3n1)C2 (centres unmarked)", "false"),
    ("CCn1ncc2c1CCC(Nc1nc3c(-c4ccc(C)nc4)cccn3n1)C2 (centres unmarked)", "true"),
    ("CCCCn1ncc2c1CCC(Nc1nc3c(-c4ccc(F)cc4C)cccn3n1)C2 (centres unmarked)", "true"),
]

* * *

Molecular target: FGFR2 (Homo sapiens, UniProt P21802)
Sequence (P21802 22-821): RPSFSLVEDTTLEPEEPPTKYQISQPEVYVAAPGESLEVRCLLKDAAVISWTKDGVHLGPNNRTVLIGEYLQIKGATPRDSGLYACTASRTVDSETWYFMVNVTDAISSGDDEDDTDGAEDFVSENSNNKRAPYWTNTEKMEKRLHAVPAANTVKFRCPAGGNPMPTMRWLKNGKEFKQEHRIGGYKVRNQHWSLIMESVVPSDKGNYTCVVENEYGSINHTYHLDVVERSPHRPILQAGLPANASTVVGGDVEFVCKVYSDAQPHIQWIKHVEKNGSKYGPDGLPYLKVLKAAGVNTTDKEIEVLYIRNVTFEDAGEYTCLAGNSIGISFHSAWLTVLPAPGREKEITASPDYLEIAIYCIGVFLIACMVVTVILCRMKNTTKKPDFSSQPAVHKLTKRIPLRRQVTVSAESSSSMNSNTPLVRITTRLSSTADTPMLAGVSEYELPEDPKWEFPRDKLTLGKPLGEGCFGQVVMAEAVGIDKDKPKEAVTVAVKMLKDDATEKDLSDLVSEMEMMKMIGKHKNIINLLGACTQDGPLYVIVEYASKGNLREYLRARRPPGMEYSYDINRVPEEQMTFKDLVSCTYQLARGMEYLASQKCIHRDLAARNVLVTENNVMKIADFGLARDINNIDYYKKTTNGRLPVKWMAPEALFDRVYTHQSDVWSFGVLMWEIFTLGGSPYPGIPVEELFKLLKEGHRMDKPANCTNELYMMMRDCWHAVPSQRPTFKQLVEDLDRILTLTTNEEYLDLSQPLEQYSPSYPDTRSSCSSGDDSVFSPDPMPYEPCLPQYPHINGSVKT
Test: Z'-LYTE SelectScreen biochemical kinase assay FGFR2
Settings: read-out: % Inhibition mean FGFR2

# Molecule, inhibition at 10 µM (%)
measured = [
    ("CCCn1ncc2c1CCC(Nc1nc3c(-c4ccc(F)cc4C)cccn3n1)C2 (stereo not shown)", 14),
    ("Cc1cc(F)ccc1-c1cccn2nc(NC3CCc4c(cnn4CC(C)C)C3)nc12 (stereo not shown)", 16),
    ("CCn1ncc2c1CC[C@H](Nc1nc3c(-c4ccc(F)c(Cl)c4)cccn3n1)C2", 13),
    ("CCn1ncc2c1CCC(Nc1nc3c(-c4cccnc4)cccn3n1)C2 (stereo not shown)", 16),
]

* * *

Biological target: FLT4 (VEGFR3) (Homo sapiens, UniProt P35916)
Sequence (P35916 25-1363): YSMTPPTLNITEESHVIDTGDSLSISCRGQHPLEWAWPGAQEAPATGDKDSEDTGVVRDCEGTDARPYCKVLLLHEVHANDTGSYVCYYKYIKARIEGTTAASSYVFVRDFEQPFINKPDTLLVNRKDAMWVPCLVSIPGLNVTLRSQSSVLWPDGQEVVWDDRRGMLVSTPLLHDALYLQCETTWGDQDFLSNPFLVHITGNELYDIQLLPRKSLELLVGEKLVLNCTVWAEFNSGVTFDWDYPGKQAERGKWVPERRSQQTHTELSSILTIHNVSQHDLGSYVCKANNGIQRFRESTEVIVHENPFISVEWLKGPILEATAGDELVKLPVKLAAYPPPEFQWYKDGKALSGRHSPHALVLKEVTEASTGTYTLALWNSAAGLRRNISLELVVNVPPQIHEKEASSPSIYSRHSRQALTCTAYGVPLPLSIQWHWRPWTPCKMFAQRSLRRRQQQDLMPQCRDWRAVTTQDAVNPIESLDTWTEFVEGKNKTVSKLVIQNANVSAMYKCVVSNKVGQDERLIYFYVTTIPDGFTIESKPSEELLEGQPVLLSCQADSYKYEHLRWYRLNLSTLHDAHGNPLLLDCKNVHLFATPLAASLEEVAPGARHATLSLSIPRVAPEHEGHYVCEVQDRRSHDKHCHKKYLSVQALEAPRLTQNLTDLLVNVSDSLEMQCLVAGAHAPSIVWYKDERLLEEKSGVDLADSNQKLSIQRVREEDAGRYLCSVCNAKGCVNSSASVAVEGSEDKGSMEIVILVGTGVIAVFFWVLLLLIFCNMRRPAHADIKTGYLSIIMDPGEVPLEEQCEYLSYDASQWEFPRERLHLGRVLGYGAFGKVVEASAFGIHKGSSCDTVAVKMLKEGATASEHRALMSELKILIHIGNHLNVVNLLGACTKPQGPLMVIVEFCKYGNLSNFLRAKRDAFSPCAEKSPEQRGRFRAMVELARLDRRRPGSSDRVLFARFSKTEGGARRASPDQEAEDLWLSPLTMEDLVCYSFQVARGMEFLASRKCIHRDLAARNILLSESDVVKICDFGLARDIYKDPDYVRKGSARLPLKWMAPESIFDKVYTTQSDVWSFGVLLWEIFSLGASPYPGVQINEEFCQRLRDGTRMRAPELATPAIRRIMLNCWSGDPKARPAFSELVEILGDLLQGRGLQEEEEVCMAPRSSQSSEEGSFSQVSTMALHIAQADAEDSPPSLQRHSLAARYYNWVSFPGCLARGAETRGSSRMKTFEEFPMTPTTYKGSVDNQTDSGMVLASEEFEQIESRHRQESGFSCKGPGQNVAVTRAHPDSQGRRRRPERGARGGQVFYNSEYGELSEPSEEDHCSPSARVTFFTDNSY
Assay: Z'-LYTE SelectScreen biochemical kinase assay FLT4 (VEGFR3)
Conditions: read-out: % Inhibition mean FLT4 (VEGFR3)
Source text: Thermo Fisher Scientific SelectScreen™ Biochemical Kinase Profiling Service Z′-LYTE™ Screening Protocol and Assay Conditions Assay Theory The […] biochemical assay employs a fluorescence-based, coupled-enzyme format and is based on the differential sensitivity of phosphorylated and non-phosphorylated peptides to proteolytic cleavage. […] Both cleaved and uncleaved FRET-peptides contribute to the fluorescence signals and therefore to the Emission Ratio. […]
Would you mind labelling by inhibition at 10 µM? At or over 30% is label 1, under is label 0.

# Molecule, Class Assignment
rows = [
    ("Cc1cc(F)ccc1-c1cccn2nc(NC3CCc4cnn(C)c4C3)nc12 (stereo not shown)", "label 0"),
    ("CCn1ncc2c1CCC(Nc1nc3c(-c4cncc(OC)c4)cccn3n1)C2 (stereo not shown)", "label 0"),
    ("CCn1ncc2c1CCC(Nc1nc3c(-c4ccc(C)nc4)cccn3n1)C2 (stereo not shown)", "label 1"),
    ("CCn1ncc2c1CC[C@@H](Nc1nc3c(-c4ccc(F)cc4C)cccn3n1)C2", "label 1"),
    ("CCn1ncc2c1CC[C@@H](Nc1nc3c(-c4ccc(F)c(Cl)c4)cccn3n1)C2", "label 0"),
    ("CCCCn1ncc2c1CCC(Nc1nc3c(-c4ccc(F)cc4C)cccn3n1)C2 (stereo not shown)", "label 0"),
    ("CCn1ncc2c1C(C)CC(Nc1nc3c(-c4cc(F)c(F)c(F)c4)cccn3n1)C2 (stereo not shown)", "label 1"),
]
